# MCC at 24 h annotations
# ASSAY METHOD TEXT: Cytotoxicity in human HeLa cells after 24 hrs by XTT assay
# Assay type: cell-based
Expressed in µM, but write only the number.

Worked set:
O=[N+]([O-])C1=Cc2cc(Cl)ccc2OC1c1ccc(Cl)cc1 (centres undefined) ... 6
O=[N+]([O-])C1=Cc2c(ccc3ccccc23)OC1c1ccc(F)cc1 (centres undefined) ... 10
COC(=O)C1=C(c2ccccc2Cl)Oc2ccc([N+](=O)[O-])cc2C1 ... 70

Consider the compound shown here: `O=[N+]([O-])/C=C/c1ccc(Br)cc1` What is its recorded MCC at 24 h?
8

Entry `O=[N+]([O-])/C=C/c1ccc(F)cc1` please
20

Cool, now `O=[N+]([O-])/C=C/c1cc(Cl)cc(Cl)c1`
2

Subsequent entry: `O=[N+]([O-])/C=C/c1cc(C(F)(F)F)cc(C(F)(F)F)c1`
3.5

Now give it for `COc1ccc(C2(C)SCc3cc(C)c(C)cc3CS2)cc1` too.
100

Thanks! And `NS(=O)(=O)c1ccc(SCCO)c2nonc12` ?
100

====

# ASSAY METHOD TEXT: Cytotoxicity in human HeLa cells after 24 hrs by XTT assay
# Type: cell-based
QUANTITY MEASURED: MCC at 24 h (µM)
Entry rule: numbers only, all in µM.

Previously resolved entries follow.
O=[N+]([O-])/C=C/c1c(F)cc(Cl)cc1F ... 20
O=[N+]([O-])/C=C/c1ccccc1C(F)(F)F ... 0.1
O=[N+]([O-])/C=C/c1ccc(I)cc1 ... 10

Param item = `O=[N+]([O-])/C=C/c1cccc(C(F)(F)F)c1` ; retrieve measured MCC at 24 h.
40

Try the molecule `COc1ccc(Sc2ccc([N+](=O)[O-])c3nonc23)cc1`
3

# repeat for `O=C(Nc1ccccc1)OCCSc1ccc([N+](=O)[O-])c2nonc12`
2.2

Item: `COc1ccc(CSc2ccc(S(N)(=O)=O)c3nonc23)cc1`
12

Another: `O=[N+]([O-])/C=C/c1ccc(Cl)c(C(F)(F)F)c1`
5

Same read-out for `COc1ccc(CSc2ccc(N)c3nonc23)cc1` ?
100

Cool, now `O=C(O)/C=C/c1cc(C(F)(F)F)cc(C(F)(F)F)c1`
100

Can you check `O=[N+]([O-])/C=C/c1ccccc1I` next?
1

Next record, please: `COc1cccc(/C=C(\C)[N+](=O)[O-])c1`
0.7

Param item: `O=C(OCCSc1ccc([N+](=O)[O-])c2nonc12)c1ccc(Cl)cc1Cl`
4

Another: `Brc1cccc2nsnc12`
100

# repeat for `Cc1ccc(Sc2ccc([N+](=O)[O-])c3nonc23)cc1`
1.3

Now the molecule CSc1ccc(C2Oc3ccccc3C=C2[N+](=O)[O-])cc1 (centres undefined)
1

What would you report for `COC(=O)/C=C/c1cc(C(F)(F)F)cc(C(F)(F)F)c1` ?
100

Repeat for the following molecule: `O=C(Nc1ccc(Cl)cc1Cl)OCCSc1ccc([N+](=O)[O-])c2nonc12`
1.7

====

# ASSAY METHOD TEXT: Binding affinity to Helicobacter pyroli flavodoxin expressed in Escherichia coli by isothermal titration calorimetry analysis
# Set-up: species or system Helicobacter pylori
Decision: Kd beneath 3000 nM gives 1.0; Kd meeting or exceeding 3000 nM gives 0.0.

Answered examples (3):
O=[N+]([O-])C1=Cc2c(ccc3ccccc23)OC1c1ccc(F)cc1 (configuration not stated) ... 1.0
O=[N+]([O-])/C=C/c1ccc(Cl)c(C(F)(F)F)c1 ... 1.0
O=[N+]([O-])/C=C/c1cc(Cl)cc(Cl)c1 ... 1.0

Would you kindly verify if Kd of `COc1ccc(Sc2ccc([N+](=O)[O-])c3nonc23)cc1` is strictly less than 3000 nM?
1.0

Please answer likewise for `O=[N+]([O-])/C=C/c1c(F)cc(Cl)cc1F`
0.0

Lookup O=[N+]([O-])C1=Cc2cc(Cl)ccc2NC1c1ccc(F)cc1 (configuration not stated)
0.0

`COc1cccc(/C=C(\C)[N+](=O)[O-])c1` ?
0.0

====

# ASSAY METHOD TEXT: Cytotoxicity in human HeLa cells after 24 hrs by XTT assay
# Type: cell-based
QUANTITY MEASURED: MCC at 24 h (µM)
Your answer should be a plain number; it is taken to be in µM.

A selection of reference data follows.
O=[N+]([O-])C1=Cc2cc(Cl)cc(Cl)c2OC1c1ccc(I)cc1 (stereo unspecified) ... 10
O=[N+]([O-])/C=C/c1cc(C(F)(F)F)ccc1F ... 8
CN(C)c1ccc([N+](=O)[O-])c2nonc12 ... 100
COc1ccc(C(=O)OCCSc2ccc([N+](=O)[O-])c3nonc23)cc1 ... 8
COc1ccc(CCCSc2ccc([N+](=O)[O-])c3nonc23)cc1 ... 1

// MCC at 24 h lookup, key: CCOC(=O)C1=Cc2cc(Cl)cc(Cl)c2OC1c1ccc(F)cc1 (stereo unspecified)
12

Each recorded value in this set is attributed to ChEMBL document CHEMBL2406954.
